Source: patent US20230072683A1

target: PI3K-δ (PI3K(p1108/p857) (h)) (Homo sapiens, UniProt O00329); assay: Evaluation of inhibitory activity against PI3K-δ (HTRF kinase assay); type: biochemical; details: compound at 0.1 μM; read-out: EXP_VALUE(% Inhibition) PI3K-δ 0.1 μM
Sequence (O00329 whole entry): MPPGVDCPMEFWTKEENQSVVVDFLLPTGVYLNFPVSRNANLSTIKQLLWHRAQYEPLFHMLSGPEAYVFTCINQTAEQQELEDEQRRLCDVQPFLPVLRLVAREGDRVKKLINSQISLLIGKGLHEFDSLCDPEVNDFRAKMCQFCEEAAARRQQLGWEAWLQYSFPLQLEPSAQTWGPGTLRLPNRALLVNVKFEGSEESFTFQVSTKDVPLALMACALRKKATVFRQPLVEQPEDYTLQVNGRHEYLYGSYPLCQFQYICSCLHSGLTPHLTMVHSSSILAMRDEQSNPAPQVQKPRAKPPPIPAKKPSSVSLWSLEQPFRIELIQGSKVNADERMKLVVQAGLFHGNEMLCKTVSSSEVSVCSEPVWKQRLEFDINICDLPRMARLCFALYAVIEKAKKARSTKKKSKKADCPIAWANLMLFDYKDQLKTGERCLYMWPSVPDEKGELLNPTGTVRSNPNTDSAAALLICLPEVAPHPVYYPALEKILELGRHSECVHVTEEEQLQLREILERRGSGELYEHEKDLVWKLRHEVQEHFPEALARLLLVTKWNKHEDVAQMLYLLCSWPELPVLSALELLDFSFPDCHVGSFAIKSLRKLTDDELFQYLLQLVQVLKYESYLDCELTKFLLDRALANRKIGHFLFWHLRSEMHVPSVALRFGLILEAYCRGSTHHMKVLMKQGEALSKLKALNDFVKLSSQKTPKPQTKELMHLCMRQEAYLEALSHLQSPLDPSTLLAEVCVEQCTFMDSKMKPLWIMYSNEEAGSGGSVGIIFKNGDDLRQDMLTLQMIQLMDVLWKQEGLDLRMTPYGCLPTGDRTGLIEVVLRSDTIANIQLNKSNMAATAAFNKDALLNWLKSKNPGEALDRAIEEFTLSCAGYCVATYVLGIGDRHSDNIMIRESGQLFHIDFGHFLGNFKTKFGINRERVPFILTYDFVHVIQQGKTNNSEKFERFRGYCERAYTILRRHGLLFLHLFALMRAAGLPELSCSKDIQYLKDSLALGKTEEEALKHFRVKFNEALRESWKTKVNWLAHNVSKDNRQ
Sequence (P27986 whole entry partner): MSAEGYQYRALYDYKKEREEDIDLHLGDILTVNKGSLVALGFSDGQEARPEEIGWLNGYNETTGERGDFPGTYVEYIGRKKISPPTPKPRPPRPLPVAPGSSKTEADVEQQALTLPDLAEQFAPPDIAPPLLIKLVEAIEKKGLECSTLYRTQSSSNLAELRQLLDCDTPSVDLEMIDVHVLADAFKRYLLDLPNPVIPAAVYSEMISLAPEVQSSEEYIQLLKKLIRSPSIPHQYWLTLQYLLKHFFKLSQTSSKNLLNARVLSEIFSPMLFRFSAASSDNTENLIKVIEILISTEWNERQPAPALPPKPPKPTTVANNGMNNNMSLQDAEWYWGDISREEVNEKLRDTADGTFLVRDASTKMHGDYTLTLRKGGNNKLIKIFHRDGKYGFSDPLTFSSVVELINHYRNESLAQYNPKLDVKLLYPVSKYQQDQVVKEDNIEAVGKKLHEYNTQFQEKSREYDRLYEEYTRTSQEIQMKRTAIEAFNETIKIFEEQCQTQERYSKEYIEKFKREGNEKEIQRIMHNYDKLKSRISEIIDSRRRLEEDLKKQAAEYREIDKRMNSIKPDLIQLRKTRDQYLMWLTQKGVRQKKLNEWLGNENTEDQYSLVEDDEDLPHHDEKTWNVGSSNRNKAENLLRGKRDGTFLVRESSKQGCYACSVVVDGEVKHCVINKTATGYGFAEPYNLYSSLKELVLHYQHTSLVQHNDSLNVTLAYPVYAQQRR
Value type: inhibition at 0.1 µM (%)
Number only, in %; omit the unit.

# Compound, Experimental target, inhibition at 0.1 µM [%]
records = [
    ("C[C@H](Nc1ncnc2[nH]ccc(=O)c12)c1c(Cl)c2cccc(S(=O)(=O)c3nc[nH]n3)c2c(=O)n1-c1ccccc1 [Example 401]", "PI3K-δ (PI3K(p1108/p857) (h)) (Homo sapiens, UniProt O00329)", 42),
]

Query: Look up inhibition at 0.1 µM: C[C@H](Nc1ncnc2[nH]ccc(=O)c12)c1c(Cl)c2cccc(S(C)(=N)=O)c2c(=O)n1-c1ccccc1 (stereo partly drawn) [Example 425]
Reply: 86

Query: Look up inhibition at 0.1 µM: C[C@H](Nc1ncnc2[nH]ccc(=O)c12)c1c(Cl)c2cccc(Sc3nc[nH]n3)c2c(=O)n1-c1ccccc1 [Example 400]
Reply: 16

Query: Look up inhibition at 0.1 µM: CCC[S@](=N)(=O)c1cccc2c(Cl)c([C@H](C)Nc3ncnc4[nH]ccc(=O)c34)n(-c3ccccc3)c(=O)c12 [Example 409]
Reply: 17

Query: Look up inhibition at 0.1 µM: C[C@H](Nc1ncnc2[nH]ccc(=O)c12)c1cc2cccc(-c3cnc(C(F)(F)F)nc3)c2c(=O)n1-c1ccccc1 [Example 385]
Reply: 75

Query: Look up inhibition at 0.1 µM: C[C@H](Nc1ncnc2[nH]ccc(=O)c12)c1c(Cl)c2cccc([S+]([O-])C3COC3)c2c(=O)n1-c1ccccc1 (stereo partly drawn) [Example 431]
Reply: 32

Query: Look up inhibition at 0.1 µM: COC(C)(C)c1ncc(-c2cccc3c(Cl)c([C@H](C)Nc4ncnc5[nH]ccc(=O)c45)n(-c4ccccc4)c(=O)c23)cn1 [Example 405]
Reply: 69
